- Experimental Target: human PTH1 receptor (Homo sapiens, UniProt Q03431)
- Test Summary: In vitro cAMP signal activity in HKRK-B7 cells (LLC-PK1 cells overexpressing the human PTH1 receptor)
- Assay type: cell-based
- Measurement Context: HKRK-B7 cells; compound at 1×10^−3 M; cAMP produced as percentage of that produced by hPTH(1-34) at 100 nM
Structures can show the parent of a compound that is named as a salt.
Recorded Metric: cAMP production activity (%)
Unit % implied. Number only.

Summary for this molecule, Cc1cc(N(C)C(N)=O)cc(C)c1CCS(=O)(=O)N1CCC2(CC1)N=C(C1CCC(=CCC(F)(F)F)CC1)NC2=O (stereo not drawn) [Compound 939] : cAMP production activity (%) is 111

Summary for this molecule, Nc1cc(C(F)(F)F)c(/C=C/S(=O)(=O)N2CCC3(CC2)N=C(C2CCCCC2)NC3=O)c(C(F)(F)F)c1 [Compound 491] : cAMP production activity (%) is 58

Summary for this molecule, Cc1cc(OC2CCNCC2)ccc1/C=C/S(=O)(=O)N1CCC2(CC1)N=C(c1cccc(OC(F)(F)F)c1)NC2=O [Compound 1283, trifluoroacetate] : cAMP production activity (%) is 18

###

- Experimental Target: UniProt Q03431
- Sequence (Q03431 27-593): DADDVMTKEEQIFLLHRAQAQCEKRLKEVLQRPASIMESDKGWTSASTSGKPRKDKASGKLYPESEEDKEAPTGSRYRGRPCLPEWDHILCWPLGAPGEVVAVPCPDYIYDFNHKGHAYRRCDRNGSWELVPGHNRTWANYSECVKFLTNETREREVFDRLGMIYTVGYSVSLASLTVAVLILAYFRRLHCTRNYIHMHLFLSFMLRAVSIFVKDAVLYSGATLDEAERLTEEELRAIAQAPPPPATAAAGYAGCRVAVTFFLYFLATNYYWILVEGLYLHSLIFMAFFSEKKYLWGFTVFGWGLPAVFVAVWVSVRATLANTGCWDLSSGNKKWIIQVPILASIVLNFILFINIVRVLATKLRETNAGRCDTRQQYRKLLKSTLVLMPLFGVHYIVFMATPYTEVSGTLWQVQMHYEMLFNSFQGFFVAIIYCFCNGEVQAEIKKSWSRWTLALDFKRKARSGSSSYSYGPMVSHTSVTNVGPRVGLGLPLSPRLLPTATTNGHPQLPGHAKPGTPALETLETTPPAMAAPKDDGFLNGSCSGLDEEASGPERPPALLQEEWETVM
- Test Summary: In vitro cAMP signal activity in HKRK-B7 cells (LLC-PK1 cells overexpressing the human PTH1 receptor)
- Assay type: cell-based
- Measurement Context: HKRK-B7 cells; compound at 1×10^−3 M; cAMP produced as percentage of that produced by hPTH(1-34) at 100 nM
With a cut-off of 60%, any cAMP production activity (%) strictly below it is called Satisfied; any cAMP production activity (%) meeting it or above is called Not satisfied.

Some solved cases for reference:
>>> category_label("O=C1NC(C2CCCCC2)=NC12CCN(S(=O)(=O)CCc1cccc3c1CCCN3)CC2 [Compound 645]")
"Satisfied"
>>> category_label("Cc1cc(C(=O)N2CCC(C)(O)CC2)cc(C)c1/C=C/S(=O)(=O)N1CCC2(CC1)N=C(c1ccc(C(F)F)c(F)c1)NC2=O [Compound 1219]")
"Not satisfied"

In the following, a different compound is considered.
is_below(cAMP production activity (%), 60%) for CC(=O)N(C)c1ccc(/C(F)=C\S(=O)(=O)N2CCC3(CC2)N=C(C2CCC(C)CC2)NC3=O)c(C)c1 (stereo not shown) [Compound 942] ? Satisfied
